tested on: KM12 colon; experiment: NCI tumour cell line growth inhibition, 48 h
OBSERVED PROPERTY: TGI

Prompt: Need TGI, item `COc1cccc(NC(=O)c2sc3nc4c(cc3c2N)CN(Cc2ccccc2)CC4)c1`
Completion: 40.3 µM

Prompt: TGI for `COc1ccc(-c2c3c(nc4nc(SCCc5ccccc5)nc(N)c24)CCCC3)cc1OC` ?
Completion: > 100 µM

Prompt: Reported TGI, molecule CC12CCC(C(=O)OC1=O)C(C)(C)O2 (centres undefined) : ____
Completion: > 100 µM

Prompt: # get_value(readout='TGI', item= `C=CCOC(=O)/C(=C\c1ccc(OC)c(OC)c1)c1ccc(OC)c(OC)c1` )
Completion: > 100 µM

Prompt: TGI lookup needed for `COc1cc(OC)c(/C=C2\N=C(C)N(Nc3nnc(NN4C(=O)/C(=C/c5c(OC)cc(OC)cc5OC)N=C4C)c4ccccc34)C2=O)c(OC)c1` , thanks.
Completion: > 100 µM

Prompt: GET /values?readout=TGI&item= COc1nc2c(c(=O)n1C)N(C(C)=O)C1C(N2)OCC(OC(C)=O)C1OC(C)=O (centres undefined)
Completion: > 10 µM

Prompt: So what's the measured TGI for this one? C=CCOC1OC(CO[Si](C)(C)C(C)(C)C)C(OCc2ccccc2)C(OCc2ccccc2)C1OCc1ccccc1 (centres undefined)
Completion: > 100 µM

Prompt: Entry `N#C/C(=C\c1ccccc1)C(=O)Nc1nnc(-c2ccccc2)o1` has what TGI?
Completion: > 100 µM

Prompt: Query: TGI; subject: CC(=O)OC1C(O)COC(O[C@H]2CC[C@]34C[C@]35CC[C@]3(C)C([C@@]6(C)CC[C@@H](C(C)(C)O)O6)[C@@H](O)C[C@@]3(C)C5C[C@H](OC3OCC(O)C(O)C3O)[C@H]4C2(C)C)C1OC1OCC(O)C(O)C1O (some centres undefined)
Completion: > 100 µM

Prompt: Field request: TGI | item: `Cc1c(/C=N/NC(=S)Nc2ccccc2Cl)c(=O)n(-c2ccccc2)n1C`
Completion: > 100 µM

Prompt: Any idea what its TGI is? The molecule is COc1nc(N)c(NC2OC(CO)C(O)C2O)c(=O)[nH]1 (centres undefined)
Completion: > 100 µM

Prompt: Can you share its TGI? I mean this molecule: `Clc1cc(Cl)c(OCC#CI)cc1Cl`
Completion: 27.5 µM

Prompt: Record request: TGI value, item `CC(=O)Nc1ccccc1SCCSSCCSc1ccccc1NC(C)=O`
Completion: > 100 µM

Prompt: Form field: reported TGI of `CCCN(C(=O)c1c(Cl)nnc(Cl)c1C(=O)c1cc(Cl)nnc1Cl)c1cc(Cl)nnc1Cl`
Completion: 26.4 µM

Prompt: Would you kindly share the measured TGI for `CCOC(=O)c1oc2ccc(OC)c3c2c1CCC3` ?
Completion: > 100 µM

Prompt: Give the measured TGI of CC1=C(N2CC2)C(=O)c2nc3n(c2C1=O)CCC3OC(=O)CCl (centres undefined) .
Completion: 0.0977 µM

Prompt: So what's the measured TGI for this one? COc1c2c(cc3oc(C)cc(=O)c13)OC(=N)C(C(N)=O)C2CC(=O)c1ccc(N)cc1 (centres undefined)
Completion: > 100 µM

Prompt: Reported TGI for `O=C1c2ccccc2-c2c1c1ccc([N+](=O)[O-])cc1c(=O)n2CCCBr` : what is it?
Completion: > 100 µM

Prompt: Bench note: what TGI did `Cc1ccc(NC(=O)/C=C/c2ccccc2)c(C(N)=O)c1` show?
Completion: 35.5 µM
